Assign AUC0-t (ng/h/mL) to each entry below.
Run description: Oral pharmacokinetic experiment in SD rats
Type: in vivo
Test settings: oral (intragastric) 10 mg/kg, mean n = 3
Description: SD rats were used as experimental animals and were subjected to intragastric administration in a dose of 10 mg/kg and tail-vein intravenous injection in a dose of 2 mg/kg. […] 0.3 ml of whole blood was taken, and 0.1 ml of plasma after centrifugation was taken and analyzed by LC-MS.
Give bare numbers, in ng·h/mL.

C=CC(=O)N1CC[C@@H](n2nc(-c3ccc(Oc4ccccc4)nc3F)c3c(N)ncnc32)C1 [Compound 24a]	2080

Please go through the list and note AUC0-t (ng/h/mL) for each molecule.
1. C=CC(=O)N1CCC[C@@H](n2nc(-c3ccc(Oc4ccccc4)nc3)c3c(N)ncnc32)C1 [Compound 15a]
2. C=CC(=O)N1CC[C@@H](n2nc(-c3ccc(Oc4cccc(F)c4F)nc3F)c3c(N)ncnc32)C1 [Compound 24e]
3. C=CC(=O)N1CCC[C@@H](n2nc(-c3ccc(Oc4ccccc4)cc3)c3c(N)ncnc32)C1 [Ibrutinib, reference compound]

Solution:
1. 624
2. 1600
3. 544
